Origin of the recorded values: the kinase profiling compilation of Christmann-Franck et al. (2016)

- Experimental Target: PIM2 (human)
- Experiment Summary: radiometric filter-binding kinase assay
- Run Parameters: compound 1.0 µM
Recorded Metric: residual activity (%)

# Compound, residual activity (%)
rows = [
    ("Cc1ccc(Sc2cnc(Nc3cccc(Br)n3)s2)cc1C(=O)N1CCN(C(=O)CN)CC1", 92),
    ("CCn1c(-c2nonc2N)nc2cncc(CNC3CCNCC3)c21", 110),
    ("O=C(NOCC(O)CO)c1ccc(F)c(F)c1Nc1ccc(I)cc1Cl (configuration not stated)", 91),
    ("Cc1nc(-c2ccc(OCC(C)C)c(C#N)c2)sc1C(=O)O", 110),
    ("C[C@H]1CCCC(=O)CCC/C=C/c2cc(O)cc(O)c2C(=O)O1", 86),
    ("O=C(NCCCNc1nc(Nc2cccc(CN3CCOCC3)c2)ncc1C1CC1)C1CCC1", 85),
    ("O=C(N[C@@H](COc1ccc2[nH]c(=O)[nH]c2c1)c1ccccc1)c1cccn(Cc2ccc(F)c(F)c2)c1=O", 105),
    ("CC1=C(CO)C(=O)O[C@@H]([C@@H](C)[C@H]2CC[C@H]3[C@@H]4C[C@H]5O[C@]56[C@@H](O)C=CC(=O)[C@]6(C)C4CC[C@]23C)C1 (some centres not stated)", 102),
    ("Oc1ccc(/C=C/c2cc(O)cc(O)c2)cc1", 78),
    ("NC(=O)c1ccc(-c2ccc(Oc3cncc4sc(-c5nn[nH]n5)cc34)cc2)cc1", 85),
    ("C=CC(=O)N1CCC[C@@H](n2nc(-c3ccc(Oc4ccccc4)cc3)c3c(N)ncnc32)C1", 100),
    ("Cc1cccc(-c2nn(C(=S)Nc3ccccc3)cc2-c2ccnc3ccccc23)n1", 94),
    ("CCCCCc1ccc(/C=C/[C@H](O)[C@@H](CO)NC)cc1", 109),
    ("Cc1ccc(-c2ccc3c(ccc4sc5c(c43)NC[C@@H](C)NC5=O)n2)cn1", 103),
    ("COc1cc2ncn(-c3cc(OCc4ccccc4S(C)(=O)=O)c(C#N)s3)c2cc1OC", 93),
    ("Cn1nc(Nc2ccc(F)cc2)c2c(N)ncnc21", 100),
    ("COc1cc(O)c2c(c1)/C=C/C[C@H](O)[C@H](O)C(=O)/C=C\\C[C@H](C)OC2=O", 106),
]
